- Procedure summary: Two week range-finding toxicity study in mice
- Type: in vivo, CD-1 mice
- Experimental setup: both sexes, CD-1, mouse, in vivo, iv, NOAEL 2 week mice histological
Recorded NOAEL at 2 week, one value per entry.
Reported endpoint: NOAEL at 2 week (mg/kg)

* CC1[C@H](C)OC(=O)C[C@H](O)C[C@H](O)CC[C@@H](O)[C@H](O)C[C@H](O)C[C@]2(O)C[C@H](O)C(C(=O)NCCCN3CCOCC3)C(C[C@@H](OC3O[C@H](C)[C@@H](O)[C@H](NC[C@@]4(O)OC[C@@H](O)[C@H](O)[C@@H]4O)[C@@H]3O)/C=C/C=C/C=C/C=C/C=C/C=C/C=C/[C@H](C)[C@H]1O)O2 (some centres unmarked) | 7
* CC1[C@H](C)OC(=O)C[C@H](O)C[C@H](O)CC[C@@H](O)[C@H](O)C[C@H](O)C[C@]2(O)C[C@H](O)C(C(=O)N3CCN(C)CC3)C(C[C@@H](OC3O[C@H](C)[C@@H](O)[C@H](NC[C@@]4(O)OC[C@@H](O)[C@H](O)[C@@H]4O)[C@@H]3O)/C=C/C=C/C=C/C=C/C=C/C=C/C=C/[C@H](C)[C@H]1O)O2 (some centres unmarked) | 1.25

---

- Procedure summary: Two week range-finding toxicity study in mice
- Assay type: in vivo, CD-1 mice
- Experimental setup: both sexes, CD-1, mouse, in vivo, iv, NOAEL 2 week mice clinical
Recorded NOAEL at 2 week, one value per entry.
Reported endpoint: NOAEL at 2 week (mg/kg)

• CC1[C@H](C)OC(=O)C[C@H](O)C[C@H](O)CC[C@@H](O)[C@H](O)C[C@H](O)C[C@]2(O)C[C@H](O)C(C(=O)N3CCN(CCO)CC3)C(C[C@@H](OC3O[C@H](C)[C@@H](O)[C@H](NC[C@@]4(O)OC[C@@H](O)[C@H](O)[C@@H]4O)[C@@H]3O)/C=C/C=C/C=C/C=C/C=C/C=C/C=C/[C@H](C)[C@H]1O)O2 (stereo partly shown) [Compound 135] = 1.25
• CC1[C@H](C)OC(=O)C[C@H](O)C[C@H](O)CC[C@@H](O)[C@H](O)C[C@H](O)C[C@]2(O)C[C@H](O)C(C(=O)NCCN3CCCCC3)C(C[C@@H](OC3O[C@H](C)[C@@H](O)[C@H](NC[C@@]4(O)OC[C@@H](O)[C@H](O)[C@@H]4O)[C@@H]3O)/C=C/C=C/C=C/C=C/C=C/C=C/C=C/[C@H](C)[C@H]1O)O2 (stereo partly shown) [Compound 114] = 9

---

- Procedure summary: Two week range-finding toxicity study in mice
- Format: in vivo, CD-1 mice
- Experimental setup: both sexes, CD-1, mouse, in vivo, iv, NOAEL 2 week mice histological
Recorded NOAEL at 2 week, one value per entry.
Reported endpoint: NOAEL at 2 week

* CC1[C@H](C)OC(=O)C[C@H](O)C[C@H](O)CC[C@@H](O)[C@H](O)C[C@H](O)C[C@]2(O)C[C@H](O)C(C(=O)NCCCN3CCOCC3)C(C[C@@H](OC3O[C@H](C)[C@@H](O)[C@H](NC[C@@]4(O)OC[C@@H](O)[C@@H](O)[C@@H]4O)[C@@H]3O)/C=C/C=C/C=C/C=C/C=C/C=C/C=C/[C@H](C)[C@H]1O)O2 (stereo partly shown) | < 10 mg/kg
* CC1[C@H](C)OC(=O)C[C@H](O)C[C@H](O)CC[C@@H](O)[C@H](O)C[C@H](O)C[C@]2(O)C[C@H](O)C(C(=O)N3CCN(C)CC3)C(C[C@@H](OC3O[C@H](C)[C@@H](O)[C@H](NC[C@@]4(O)OC[C@@H](O)[C@@H](O)[C@@H]4O)[C@@H]3O)/C=C/C=C/C=C/C=C/C=C/C=C/C=C/[C@H](C)[C@H]1O)O2 (stereo partly shown) | 6 mg/kg
* CC1[C@H](C)OC(=O)C[C@H](O)C[C@H](O)CC[C@@H](O)[C@H](O)C[C@H](O)C[C@]2(O)C[C@H](O)C(C(=O)NCCN3CCCCC3)C(C[C@@H](OC3O[C@H](C)[C@@H](O)[C@H](NC[C@@]4(O)OC[C@@H](O)[C@H](O)[C@@H]4O)[C@@H]3O)/C=C/C=C/C=C/C=C/C=C/C=C/C=C/[C@H](C)[C@H]1O)O2 (stereo partly shown) | 9 mg/kg
* CC1[C@H](C)OC(=O)C[C@H](O)C[C@H](O)CC[C@@H](O)[C@H](O)C[C@H](O)C[C@]2(O)C[C@H](O)C(C(=O)N3CCN(CCO)CC3)C(C[C@@H](OC3O[C@H](C)[C@@H](O)[C@H](NC[C@@]4(O)OC[C@@H](O)[C@H](O)[C@@H]4O)[C@@H]3O)/C=C/C=C/C=C/C=C/C=C/C=C/C=C/[C@H](C)[C@H]1O)O2 (stereo partly shown) | > 5 mg/kg

Reference source for all entries: patent US6664241B2
